ASSAY: log P by HPLC on reversed-phase (C18) columns, OECD Guideline 117
Assay type: physicochemical
EXPERIMENTAL PARAMETERS: reversed-phase (C18) HPLC column; acidic range, pH 2.7, 0.1% aqueous formic acid / acetonitrile; read-out: logP[a]
Experimental: The log P values were determined in accordance with OECD Guideline 117 (EC Directive 92/69/EEC) by HPLC (high-performance liquid chromatography) using reversed-phase (RP) columns (C18), by the following methods: [a] […] Calibration is carried out using unbranched alkan-2-ones (having 3 to 16 carbon atoms) with known log P values (log P values determined on the basis of the retention times by linear interpolation between two successive alkanones).
REPORTED PROPERTY: chromatographic logP

Below: 8 compounds and their reported chromatographic logP.
[[record]]
compound = "CS(=O)(=O)CCC(=O)Nc1ccc2nc(-c3cccnc3)sc2n1"
reported_property = "chromatographic logP"
numeric_value = 1.18

[[record]]
compound = "CCN(C)C(=O)c1ccc2nc(-c3cccnc3)sc2n1"
reported_property = "chromatographic logP"
numeric_value = 1.53

[[record]]
compound = "Cc1ccc(Nc2ccc3nc(-c4cccnc4)sc3n2)cc1SCC(F)(F)F"
reported_property = "chromatographic logP"
numeric_value = 3.99

[[record]]
compound = "CN(C(=O)c1cccc(S(=O)(=O)C(F)(F)F)c1)c1ccc2nc(-c3cccnc3)sc2n1"
reported_property = "chromatographic logP"
numeric_value = 1.54

[[record]]
compound = "CSCCC(=O)N(C)c1ccc2nc(-c3cccnc3)sc2n1"
reported_property = "chromatographic logP"
numeric_value = 1.98

[[record]]
compound = "O=C(Nc1cccc([S+]([O-])C(F)(F)F)c1)c1ccc2nc(-c3cccnc3)sc2n1 (stereo not drawn)"
reported_property = "chromatographic logP"
numeric_value = 3.09

[[record]]
compound = "Cc1ccc(N(C)c2ccc3nc(-c4cccnc4)sc3n2)cc1SCC(F)(F)F"
reported_property = "chromatographic logP"
numeric_value = 4.81

[[record]]
compound = "c1cncc(-c2nc3ccc(N4CCOCC4)nc3s2)c1"
reported_property = "chromatographic logP"
numeric_value = 2.1


I = CN(C(=O)c1cccc([S+]([O-])C(F)(F)F)c1)c1ccc2nc(-c3cccnc3)sc2n1 (stereo not drawn)
II = Cc1cc(F)c(-c2ccc3nc(-c4cccnc4)sc3n2)cc1SCC(F)(F)F
Looking only at measured chromatographic logP, which entry is lower, I or II ? The response must carry the label of the picked entry. I

----------
ASSAY: log P by HPLC on reversed-phase (C18) columns, OECD Guideline 117
Format: physicochemical
EXPERIMENTAL PARAMETERS: reversed-phase (C18) HPLC column; neutral range, pH 7.8, 0.001 molar aqueous ammonium hydrogencarbonate / acetonitrile; read-out: logP[b]
REPORTED PROPERTY: chromatographic logP

Below: 3 compounds and their reported chromatographic logP.
[[record]]
compound = "Cc1ccc(-c2ccc3nc(-c4cccnc4)sc3n2)cc1[S+]([O-])CC(F)(F)F (stereo not drawn) [Example 4]"
numeric_value = 2.98

[[record]]
compound = "FC(F)(F)c1ccc2nc(-c3cccnc3)sc2n1 [Example 10]"
numeric_value = 2.69

[[record]]
compound = "c1cncc(-c2nc3ccc(N4CCCC4)nc3s2)c1 [Example 6]"
numeric_value = 2.97


1 = c1cnc(-c2ccc3nc(-c4cccnc4)sc3n2)nc1 [Example 7]
2 = c1ccc(-c2ccc3nc(-c4cccnc4)sc3n2)nc1 [Example 8]
3 = Cc1ccc(N(C)c2ccc3nc(-c4cccnc4)sc3n2)cc1SCC(F)(F)F [Example 12]
Form: Sort by [chromatographic logP] Order [ ascending ] Response format: the labels, sorted as the prompt asks. 1, 2, 3
(1: 1.5, 2: 2.68, 3: 4.78)

----------
ASSAY: log P by HPLC on reversed-phase (C18) columns, OECD Guideline 117
Format: physicochemical
EXPERIMENTAL PARAMETERS: reversed-phase (C18) HPLC column; neutral range, pH 7.8, 0.001 molar aqueous ammonium hydrogencarbonate / acetonitrile; read-out: logP[b]
REPORTED PROPERTY: chromatographic logP

[[record]]
compound = "Cc1cc(F)c(-c2ccc3nc(-c4cccnc4)sc3n2)cc1SCC(F)(F)F"
numeric_value = 4.75


a = FC(F)(F)c1ccn(-c2ccc3nc(-c4cccnc4)sc3n2)n1
b = c1cncc(-c2nc3ccc(N4CCOCC4)nc3s2)c1
Looking only at measured chromatographic logP, which entry is lower, a or b ? The response must carry the label of the picked entry. b
(b: 1.95, a: 3.83)

A = FC(F)(F)c1cnn(-c2ccc3nc(-c4cccnc4)sc3n2)c1
B = Clc1ccc2nc(-c3cccnc3)sc2n1
Given the listed records, identify the one among A and B with higher chromatographic logP. The response must carry the label of the picked entry. A

1 = Cc1ccc(Nc2ccc3nc(-c4cccnc4)sc3n2)cc1SCC(F)(F)F
2 = Cc1ccc(Nc2ccc3nc(-c4cccnc4)sc3n2)cc1[S+]([O-])CC(F)(F)F (stereo not drawn)
Given the listed records, identify the one among 1 and 2 with higher chromatographic logP. The response must carry the label of the picked entry. 1
(1: 4.06, 2: 2.77)

A = Cc1cc(F)c(-c2ccc3nc(-c4cccnc4)sc3n2)cc1[S+]([O-])CC(F)(F)F (stereo not drawn)
B = Cc1ccc(-c2ccc3nc(-c4cccnc4)sc3n2)cc1SCC(F)(F)F
Looking only at measured chromatographic logP, which entry is lower, A or B ? The response must carry the label of the picked entry. A

----------
Test system: Myzus persicae
ASSAY: Myzus persicae spray test (bell pepper plants)
Assay type: in vivo, green peach aphid (Myzus persicae)
EXPERIMENTAL PARAMETERS: application rate 4 ppm, after 6 days
# key: entry, value: efficacy (kill)
Reply with just the number (in %).

Below: 3 compounds and their reported efficacy (kill).
[[record]]
compound = "Cc1ccc(-c2ccc3nc(-c4cccnc4)sc3n2)cc1[S+]([O-])CC(F)(F)F (centres unmarked) [Example 4]"
test_target = "Myzus persicae"
reported_property = "efficacy (kill)"
numeric_value = 95

[[record]]
compound = "Cc1ccc(-c2ccc3nc(-c4cccnc4)sc3n2)cc1SCC(F)(F)F [Example 2]"
test_target = "Myzus persicae"
reported_property = "efficacy (kill)"
numeric_value = 100

[[record]]
compound = "Cc1cc(F)c(-c2ccc3nc(-c4cccnc4)sc3n2)cc1[S+]([O-])CC(F)(F)F (centres unmarked) [Example 3]"
test_target = "Myzus persicae"
reported_property = "efficacy (kill)"
numeric_value = 97


Would you kindly share the measured efficacy (kill) for Cc1cc(F)c(-c2ccc3nc(-c4cccnc4)sc3n2)cc1SCC(F)(F)F [Example 1] ? 100

What about c1ccc(-c2ccc3nc(-c4cccnc4)sc3n2)nc1 [Example 8] ? 80

----------
ASSAY: log P by HPLC on reversed-phase (C18) columns, OECD Guideline 117
Format: physicochemical
EXPERIMENTAL PARAMETERS: reversed-phase (C18) HPLC column; acidic range, pH 2.7, 0.1% aqueous formic acid / acetonitrile; read-out: logP[a]
REPORTED PROPERTY: chromatographic logP

[[record]]
compound = "CNc1ccc2nc(-c3cccnc3)sc2n1 [Example 15]"
reported_property = "chromatographic logP"
numeric_value = 1.34

[[record]]
compound = "FC(F)(F)c1cnn(-c2ccc3nc(-c4cccnc4)sc3n2)c1 [Example 13]"
reported_property = "chromatographic logP"
numeric_value = 3.82


a = c1ccc(-c2ccc3nc(-c4cccnc4)sc3n2)nc1 [Example 8]
b = Cc1ccc(-c2ccc3nc(-c4cccnc4)sc3n2)cc1SCC(F)(F)F [Example 2]
c = CN(C(=O)CCS(C)(=O)=O)c1ccc2nc(-c3cccnc3)sc2n1 [Example 30]
Form: Sort by [chromatographic logP] Order [ ascending ] Response format: the labels, sorted as the prompt asks. c, a, b

1 = O=C(Nc1cccc(S(=O)(=O)C(F)(F)F)c1)c1ccc2nc(-c3cccnc3)sc2n1 [Example 34]
2 = Cc1cc(F)c(-c2ccc3nc(-c4cccnc4)sc3n2)cc1[S+]([O-])CC(F)(F)F (centres unmarked) [Example 3]
Given the listed records, identify the one among 1 and 2 with higher chromatographic logP. The response must carry the label of the picked entry. 2
(2: 3.02, 1: 2.1)

a = c1cncc(-c2nc3ccc(N4CCCC4)nc3s2)c1 [Example 6]
b = c1cnc(-c2ccc3nc(-c4cccnc4)sc3n2)nc1 [Example 7]
c = FC(F)(F)c1ccn(-c2ccc3nc(-c4cccnc4)sc3n2)n1 [Example 39]
Form: Sort by [chromatographic logP] Order [ ascending ] Response format: the labels, sorted as the prompt asks. b, a, c

----------
ASSAY: log P by HPLC on reversed-phase (C18) columns, OECD Guideline 117
Type: physicochemical
EXPERIMENTAL PARAMETERS: reversed-phase (C18) HPLC column; acidic range, pH 2.7, 0.1% aqueous formic acid / acetonitrile; read-out: logP[a]
REPORTED PROPERTY: chromatographic logP

[[record]]
molecule = "Cc1ccc(Nc2ccc3nc(-c4cccnc4)sc3n2)cc1[S+]([O-])CC(F)(F)F (stereo not shown) [Example 42]"
reported_property = "chromatographic logP"
numeric_value = 2.75


A = CSCCNC(=O)c1ccc2nc(-c3cccnc3)sc2n1 [Example 35]
B = CNC(=O)c1ccc2nc(-c3cccnc3)sc2n1 [Example 32]
C = Cc1ccc(-c2ccc3nc(-c4cccnc4)sc3n2)cc1[S+]([O-])CC(F)(F)F (stereo not shown) [Example 4]
List from greatest to least chromatographic logP. Response format: the labels, sorted as the prompt asks. C, A, B
